- measurement_notes: RP, Waters XBridge C18, 50 × 2.1 mm, 3.5 µm, 30 °C, 0.2 mL/min, estimated dead time 0.55 min; A: water + 0.1% formic acid, pH 3; B: methanol + 0.1% formic acid, pH 3; gradient (min/%B) 0/10 4/50 17/95 25/95 25.1/10 30/10
- measurement_setup: stereoisomer not certain
Entries and their LC retention time values follow.
Write down the numeric answer in min and omit the unit.

> print(dat)
                                   compound  unit.tag  endpoint.result
1  CC(C(=O)O)c1cccc(C(=O)c2ccccc2)c1 (configuration not stated)       min              9.6
2                    O=C(O)COc1ccc(Cl)cc1Cl       min              9.1
3                CC(C)(Oc1ccc(Cl)cc1)C(=O)O       min               10
4             Nc1nnc(-c2cccc(Cl)c2Cl)c(N)n1       min              5.4
5  COCC(C)N(C(=O)CCl)c1c(C)csc1C (configuration not stated)       min               10

Query string: Quick check: LC retention time of O=P(O)(O)OCCC(F)(F)C(F)(F)C(F)(F)C(F)(F)C(F)(F)C(F)(F)C(F)(F)C(F)(F)F [Perfluorodecyl phosphate] ?
Result string: 14.7

Query string: Lookup CCc1cccc(C)c1N(C(=O)C(=O)O)C(C)COC (configuration not stated)
Result string: 9.3

---

Entries and their log10 of LC retention time values follow.
- measurement_notes: RP, Waters XBridge C18, 50 × 2.1 mm, 3.5 µm, 30 °C, 0.2 mL/min, estimated dead time 0.55 min; A: water + 0.1% formic acid, pH 3; B: methanol + 0.1% formic acid, pH 3; gradient (min/%B) 0/10 4/50 17/95 25/95 25.1/10 30/10
- measurement_setup: stereoisomer not certain
Recall that a logarithmic scale is used here: each number is log10 of LC retention time in min.

Example entries and their recorded answers appear below.
> print(dat)
                                    compound             outcome.measure  endpoint.result
 1  N#Cc1nn(-c2c(Cl)cc(C(F)(F)F)cc2Cl)c(N)c1S(=O)C(F)(F)F (configuration not stated) [Fipronil]  log10 of LC retention time             1.10
 2  COCC(C)N(C(=O)C(=O)O)c1c(C)csc1C (configuration not stated) [Dimethenamid OXA]  log10 of LC retention time             0.88
 3  O=S(=O)(O)c1ccc2ccc(S(=O)(=O)O)cc2c1 [2,7-Naphthalenedisulfonic acid]  log10 of LC retention time             0.08
 4  COc1ccc(C(=O)c2ccccc2)c(O)c1 [Benzophenone-3]  log10 of LC retention time             1.08
 5    CCC1(c2ccccc2)C(=O)NCNC1=O [Primidone]  log10 of LC retention time             0.73
 6  Cc1cc(NS(=O)(=O)c2ccc(N)cc2)no1 [Sulfamethoxazole]  log10 of LC retention time             0.66
 7  CCOC(=O)Nc1cccc(OC(=O)Nc2ccccc2)c1 [Desmedipham]  log10 of LC retention time             0.96
 8  COC(=O)c1ccccc1S(N)(=O)=O [2-Aminosulfonyl-benzoic acid methyl ester]  log10 of LC retention time             0.65
 9  COC(=O)N(OC)c1ccccc1COc1ccn(-c2ccc(Cl)cc2)n1 [Pyraclostrobin]  log10 of LC retention time             1.13
10  CC(C)(C)Nc1nc(N)nc(Cl)n1 [Terbutylazine-desethyl]  log10 of LC retention time             0.88

Query string: Quick check: log10 of LC retention time of CSc1nc(N)nc(NC(C)(C)C)n1 [Irgarol-descyclopropyl] ?
Result string: 0.83

Query string: Lookup CN(C)S(N)(=O)=O [N,N-Dimethylsulfamide]
Result string: 0.04

// data source = the RepoRT retention time repository (doi:10.1021/es4044374)
